ASSAY NAME: Plasma kinetics of TMC278 in beagle dogs after single intramuscular administration
Type: in vivo
RECORDED CONDITIONS: male, beagle, dog, plasma, intramuscular, 2.5 mg/kg, mean (n=2); 72 h after dose; single IM 2.5 mg/kg, aqueous 30% DMA/50% PEG400 solution
OBSERVATION TYPE: concentration at 72 h (ng/mL)
// return numeric value only (unit: ng/mL, not printed)

Query: What value of concentration at 72 h has been recorded for this entry: Cc1cc(C=CC#N)cc(C)c1Nc1ccnc(Nc2ccc(C#N)cc2)n1 [TMC278]
Result: 5.64

====

ASSAY NAME: Plasma kinetics of TMC278 in beagle dogs after single intramuscular administration
Assay type: in vivo
RECORDED CONDITIONS: male, beagle, dog, plasma, im, 2.5 mg/kg, mean (n=2); single IM 2.5 mg/kg, aqueous 30% DMA/50% PEG400 solution; read-out: AUC0-312 h
Method: The present study was performed in order to study the plasma kinetics and the absolute bioavailability of TMC278 in beagle dogs after single intramuscular administration (IM) of an aqueous 30% dimethylacetamide (DMA)/50% polyethylene glycol 400 (PEG400) solution of TMC278 at 2.5 mg/kg. […] The concentration of TMC278 in dog plasma was determined by a qualified research LC-MS/MS method after solid phase extraction (SPE). Plasma concentrations of TMC278 were determined after proper sample clean up. […]
OBSERVATION TYPE: AUC(0-t) (ng·h/mL)
// return numeric value only (unit: ng·h/mL, not printed)

Query: What value of AUC(0-t) has been recorded for this entry: Cc1cc(C=CC#N)cc(C)c1Nc1ccnc(Nc2ccc(C#N)cc2)n1
Result: 1860

Data provenance is patent US10765674B2.
